Quick record: MIC, Byssochlamys fulva (DSM62097).
observation_type: MIC (µg/mL)

molecule	study_target	observation_type	unit_text	result_value
CCCCC(CCCC(O)C(O)CCCCCCCCCCCCCCC(O)C(=O)O)OC1OCC(O)C(O)C1OC1OCC(OC(C)=O)C(O)C1OC1OC(COC(=O)CC(C)C)C(O)C(O)C1O (stereo not shown) [[1]]	Byssochlamys fulva (DSM62097)	MIC	µg/mL	3.1
CCCCC(CCCC(O)C(O)CCCCCCCCCCCCCCC(O)C(=O)O)OC1OCC(O)C(O)C1OC1OCC(O)C(O)C1OC1OC(COC(=O)CC(C)C)C(O)C(O)C1O (stereo not shown) [[12]]	Byssochlamys fulva (DSM62097)	MIC	µg/mL	6.3
CCCCC(CCCC(O)C(O)CCCCCCCCCCCCCCC(O)C(=O)O)OC1OCC(O)C(O)C1OC1OCC(O)C(O)C1OC1OC(CO)C(O)C(O)C1O (stereo not shown) [[16], Glykenin DGC or Glykenin DGB]	Byssochlamys fulva (DSM62097)	MIC	µg/mL	6.3
CCCCC(CCCC(O)C(O)CCCCCCCCCCCCCCC(O)C(=O)O)OC1OCC(O)C(O)C1OC1OCC(O)C(O)C1OC1OC(COC(=O)CC(C)C)C(OC(C)=O)C(O)C1O (stereo not shown) [[13]]	Byssochlamys fulva (DSM62097)	MIC	µg/mL	3.1

###

Recorded MIC values (Zygosaccharomyces bisporus (DSM70415)) are given below.

compound	result_modifier	MIC, µg/mL
CCCCC(CCCC(O)C(O)CCCCCCCCCCCCCCC(O)C(=O)O)OC1OCC(O)C(O)C1OC1OCC(O)C(O)C1OC1OC(COC(=O)CC(C)C)C(OC(C)=O)C(O)C1O (centres unmarked) [[13]]	=	25
CCCCC(CCCC(O)C(O)CCCCCCCCCCCCCCC(O)C(=O)O)OC1OCC(O)C(O)C1OC1OCC(OC(C)=O)C(O)C1OC1OC(CO)C(O)C(O)C1O (centres unmarked) [[14]]	=	50
CCCCC(CCCC(O)C(O)CCCCCCCCCCCCCCC(O)C(=O)O)OC1OCC(O)C(O)C1OC1OCC(OC(C)=O)C(O)C1OC1OC(COC(=O)CC(C)C)C(O)C(O)C1O (centres unmarked) [[1]]	=	12.5
CCCCC(CCCC(O)C(O)CCCCCCCCCCCCCCC(O)C(=O)O)OC1OCC(O)C(O)C1OC1OCC(O)C(O)C1OC1OC(CO)C(O)C(O)C1O (centres unmarked) [[16], Glykenin DGC or Glykenin DGB]	>	100
CCCCC(CCCC(O)C(O)CCCCCCCCCCCCCCC(O)C(=O)O)OC1OCC(O)C(O)C1OC1OCC(O)C(O)C1OC1OC(COC(=O)CC(C)C)C(O)C(O)C1O (centres unmarked) [[12]]	=	12.5

###

Reported MIC values for the following compounds.
System: Mucor plumbeus (MUCL49355)
Test: MIC determination in microtiter plates (non-pathogenic microorganisms)
Type: cell-based
Details: M. plumbeus (MUCL49355); SDB medium; day not printed (first line of Table 19)

compound	result_modifier	MIC
CCCCC(CCCC(O)C(O)CCCCCCCCCCCCCCC(O)C(=O)O)OC1OCC(O)C(O)C1OC1OCC(O)C(O)C1OC1OC(COC(=O)CC(C)C)C(O)C(O)C1O (centres unmarked) [[12]]	=	50
CCCCCCC(CCCC(O)CCCCCCCCCCCCCC(O)C(=O)O)OC1OCC(O)C(O)C1OC1OCC(OC(C)=O)C(O)C1OC1OC(COC(C)=O)C(O)C(O)C1O (centres unmarked) [[10], Antibiotic F 19848A]	=	12.5
CCCCC(CCCC(O)C(O)CCCCCCCCCCCCCCC(O)C(=O)O)OC1OCC(O)C(O)C1OC1OCC(O)C(O)C1OC1OC(COC(C)=O)C(OC(C)=O)C(O)C1O (centres unmarked) [[6], Glykenin IIIB or Glykenin IIIC]	=	25
CCCCCCC(CCCC(O)CCCCCCCCCCCCCC(O)C(=O)O)OC1OCC(O)C(O)C1OC1OCC(OC(C)=O)C(O)C1OC1OC(COC(=O)CC(C)C)C(O)C(O)C1O (centres unmarked) [[18]]	=	25
CCCCC(CCCC(O)C(O)CCCCCCCCCCCCCCC(O)C(=O)O)OC1OCC(O)C(O)C1OC1OCC(OC(C)=O)C(O)C1OC1OC(CO)C(O)C(O)C1O (centres unmarked) [[14]]	=	50
CCCCC(CCCC(O)C(O)CCCCCCCCCCCCCCC(O)C(=O)O)OC1OCC(O)C(O)C1OC1OCC(O)C(O)C1OC1OC(COC(=O)CC(C)C)C(OC(C)=O)C(O)C1O (centres unmarked) [[13]]	=	12.5
CCCCC(CCCC(O)C(O)CCCCCCCCCCCCCCC(O)C(=O)O)OC1OCC(O)C(O)C1OC1OCC(OC(C)=O)C(O)C1OC1OC(COC(=O)CC(C)C)C(O)C(O)C1O (centres unmarked) [[1]]	=	25
CCCCC(CCCC(O)C(O)CCCCCCCCCCCCCCC(O)C(=O)O)OC1OCC(O)C(O)C1OC1OCC(O)C(O)C1OC1OC(CO)C(O)C(O)C1O (centres unmarked) [[16], Glykenin DGC or Glykenin DGB]	>	100
